# Test description: Agonist activity at ComD1 receptor in Streptococcus pneumoniae D39 harboring pcomX/lacZ reporter gene incubated for 30 mins by ONPG based beta-galactosidase assay
Non-standard residues stand in square brackets, D forms with d. Residues, ends and D or L forms follow the SMILES beside them. NMeL = CN[C@@H](CC(C)C)C(=O)O; NMeK = CN[C@@H](CCCCN)C(=O)O; NMeS = CN[C@@H](CO)C(=O)O
Value type: pEC50
Recall that pEC50 is obtained by taking minus log10 of the concentration measured in molar.

So, CC[C@H](C)[C@H](NC(=O)[C@H](Cc1ccccc1)NC(=O)[C@H](CC(=O)O)NC(=O)[C@H](CCCNC(=N)N)NC(=O)[C@H](Cc1ccccc1)NC(=O)[C@H](Cc1ccccc1)NC(=O)[C@H](CCCCN)N(C)C(=O)[C@H](CO)NC(=O)[C@H](CC(C)C)NC(=O)[C@H](CCCNC(=N)N)NC(=O)[C@H](CCSC)NC(=O)[C@@H](N)CCC(=O)O)C(=O)N[C@@H](CC(C)C)C(=O)N[C@@H](CCC(N)=O)C(=O)N[C@@H](CCCNC(=N)N)C(=O)O (H-EMRLS[NMeK]FFRDFILQR-OH) ? Its pEC50 was 7.19

So, CC[C@H](C)[C@H](NC(=O)[C@H](Cc1ccccc1)NC(=O)[C@H](CC(=O)O)NC(=O)[C@H](CCCNC(=N)N)NC(=O)[C@H](Cc1ccccc1)NC(=O)[C@H](Cc1ccccc1)NC(=O)[C@H](CCCCN)NC(=O)[C@H](CO)N(C)C(=O)[C@H](CC(C)C)NC(=O)[C@H](CCCNC(=N)N)NC(=O)[C@H](CCSC)NC(=O)[C@@H](N)CCC(=O)O)C(=O)N[C@@H](CC(C)C)C(=O)N[C@@H](CCC(N)=O)C(=O)N[C@@H](CCCNC(=N)N)C(=O)O (H-EMRL[NMeS]KFFRDFILQR-OH) ? Its pEC50 was 6.55

So, CC[C@H](C)[C@H](NC(=O)[C@H](Cc1ccccc1)NC(=O)[C@H](CC(=O)O)NC(=O)[C@H](CCCNC(=N)N)NC(=O)[C@H](Cc1ccccc1)NC(=O)[C@H](Cc1ccccc1)NC(=O)[C@H](CCCCN)NC(=O)[C@H](CO)NC(=O)[C@H](CC(C)C)N(C)C(=O)[C@H](CCCNC(=N)N)NC(=O)[C@H](CCSC)NC(=O)[C@@H](N)CCC(=O)O)C(=O)N[C@@H](CC(C)C)C(=O)N[C@@H](CCC(N)=O)C(=O)N[C@@H](CCCNC(=N)N)C(=O)O (H-EMR[NMeL]SKFFRDFILQR-OH) ? Its pEC50 was 6.55

* * *

Please respond with reported pIC50 for every item in the list.
# Test description: Antagonist activity at ComD1 receptor in Streptococcus pneumoniae D39 harboring pcomX/lacZ reporter gene assessed as inhibiton of CSP1-stimulated maximum signal preincubated for 30 mins followed by 50 nM CSP1 addition by ONPG based beta-galactosidase assay
Recall that pIC50 is obtained by taking minus log10 of the concentration measured in molar.

So, CC[C@H](C)[C@H](NC(=O)[C@H](Cc1ccccc1)NC(=O)[C@H](CC(=O)O)NC(=O)[C@H](CCCNC(=N)N)NC(=O)[C@H](Cc1ccccc1)NC(=O)[C@H](Cc1ccccc1)NC(=O)[C@H](CCCCN)N(C)C(=O)[C@H](CO)NC(=O)[C@H](CC(C)C)NC(=O)[C@H](CCCNC(=N)N)NC(=O)[C@H](CCSC)NC(=O)[C@H](C)N)C(=O)N[C@@H](CC(C)C)C(=O)N[C@@H](CCC(N)=O)C(=O)N[C@@H](CCCNC(=N)N)C(=O)N[C@@H](CCCCN)C(=O)N[C@@H](CCCCN)C(=O)O ? Its pIC50 was 7.32

So, CC[C@H](C)[C@H](NC(=O)[C@H](Cc1ccccc1)NC(=O)[C@H](CC(=O)O)NC(=O)[C@H](CCCNC(=N)N)NC(=O)[C@H](Cc1ccccc1)NC(=O)[C@H](Cc1ccccc1)NC(=O)[C@H](CCCCN)NC(=O)[C@H](CO)NC(=O)[C@H](CC(C)C)NC(=O)[C@H](CCCNC(=N)N)NC(=O)[C@H](CCSC)NC(=O)[C@H](C)N)C(=O)N[C@@H](CC(C)C)C(=O)N(C)[C@@H](CCC(N)=O)C(=O)N[C@@H](CCCNC(=N)N)C(=O)N[C@@H](CCCCN)C(=O)N[C@@H](CCCCN)C(=O)O ? Its pIC50 was 6.43

So, CC[C@H](C)[C@H](NC(=O)[C@H](Cc1ccccc1)NC(=O)[C@H](CC(=O)O)NC(=O)[C@H](CCCNC(=N)N)NC(=O)[C@H](Cc1ccccc1)NC(=O)[C@H](Cc1ccccc1)NC(=O)[C@H](CCCCN)N(C)C(=O)[C@H](CO)NC(=O)[C@H](CC(C)C)NC(=O)[C@H](CCCNC(=N)N)NC(=O)[C@H](CCSC)NC(=O)[C@H](C)N)C(=O)N[C@@H](CC(C)C)C(=O)N(C)[C@@H](CCC(N)=O)C(=O)N[C@@H](CCCNC(=N)N)C(=O)N[C@@H](CCCCN)C(=O)N[C@@H](CCCCN)C(=O)O ? Its pIC50 was 6.44

* * *

# System: Streptococcus pneumoniae TIGR4
# Test description: Agonist activity at ComD2 receptor in Streptococcus pneumoniae TIGR4 harboring pcomX/lacZ reporter gene at 10 uM incubated for 30 mins by ONPG based beta-galactosidase assay relative to native CSP2
Activity calls are given as the source filed them. The rule behind the calls is not given here. Non-standard residues stand in square brackets, D forms with d. Residues, ends and D or L forms follow the SMILES beside them. NMeR = CN[C@@H](CCCNC(=N)N)C(=O)O; NMeI = CC[C@H](C)[C@H](NC)C(=O)O; NMeQ = CN[C@@H](CCC(N)=O)C(=O)O; NMeL = CN[C@@H](CC(C)C)C(=O)O; NMeM = CN[C@@H](CCSC)C(=O)O
Value type: Activity

Below are worked cases with known answers.
Molecule	Result
CC[C@H](C)[C@H](NC(=O)[C@H](CCCNC(=N)N)NC(=O)[C@H](CCSC)NC(=O)[C@@H](N)CCC(=O)O)C(=O)N[C@@H](CO)C(=O)N[C@@H](CCCNC(=N)N)C(=O)N(C)[C@H](C(=O)N[C@H](C(=O)N[C@@H](CC(C)C)C(=O)N[C@@H](CC(=O)O)C(=O)N[C@@H](Cc1ccccc1)C(=O)N[C@@H](CC(C)C)C(=O)N[C@@H](Cc1ccccc1)C(=O)O)[C@@H](C)CC)[C@@H](C)CC (H-EMRISR[NMeI]ILDFLF-OH)	> 75%
CC[C@H](C)[C@H](NC(=O)[C@H](Cc1ccccc1)NC(=O)[C@H](CC(=O)O)NC(=O)[C@H](CCCNC(=N)N)NC(=O)[C@H](Cc1ccccc1)NC(=O)[C@H](Cc1ccccc1)NC(=O)[C@H](CCCCN)NC(=O)[C@H](CO)NC(=O)[C@H](CC(C)C)NC(=O)[C@H](CCCNC(=N)N)NC(=O)[C@H](CCSC)NC(=O)[C@@H](N)CCC(=O)O)C(=O)N(C)[C@@H](CC(C)C)C(=O)N[C@@H](CCC(N)=O)C(=O)N[C@@H](CCCNC(=N)N)C(=O)O (H-EMRLSKFFRDFI[NMeL]QR-OH)	inactive
CC[C@H](C)[C@@H](C(=O)N[C@@H](CC(C)C)C(=O)N[C@@H](CCC(N)=O)C(=O)N[C@@H](CCCNC(=N)N)C(=O)O)N(C)C(=O)[C@H](Cc1ccccc1)NC(=O)[C@H](CC(=O)O)NC(=O)[C@H](CCCNC(=N)N)NC(=O)[C@H](Cc1ccccc1)NC(=O)[C@H](Cc1ccccc1)NC(=O)[C@H](CCCCN)NC(=O)[C@H](CO)NC(=O)[C@H](CC(C)C)NC(=O)[C@H](CCCNC(=N)N)NC(=O)[C@H](CCSC)NC(=O)[C@@H](N)CCC(=O)O (H-EMRLSKFFRDF[NMeI]LQR-OH)	inactive
CC[C@H](C)[C@H](NC(=O)[C@H](Cc1ccccc1)NC(=O)[C@H](CC(=O)O)NC(=O)[C@H](CCCNC(=N)N)NC(=O)[C@H](Cc1ccccc1)NC(=O)[C@H](Cc1ccccc1)NC(=O)[C@H](CCCCN)NC(=O)[C@H](CO)NC(=O)[C@H](CC(C)C)NC(=O)[C@H](CCCNC(=N)N)NC(=O)[C@H](CCSC)N(C)C(=O)[C@@H](N)CCC(=O)O)C(=O)N[C@@H](CC(C)C)C(=O)N[C@@H](CCC(N)=O)C(=O)N[C@@H](CCCNC(=N)N)C(=O)O (H-E[NMeM]RLSKFFRDFILQR-OH)	inactive
CC[C@H](C)[C@H](NC(=O)[C@H](CCCNC(=N)N)NC(=O)[C@H](CCSC)NC(=O)[C@@H](N)CCC(=O)O)C(=O)N[C@@H](CO)C(=O)N[C@@H](CCCNC(=N)N)C(=O)N[C@H](C(=O)N[C@H](C(=O)N(C)[C@@H](CC(C)C)C(=O)N[C@@H](CC(=O)O)C(=O)N[C@@H](Cc1ccccc1)C(=O)N[C@@H](CC(C)C)C(=O)N[C@@H](Cc1ccccc1)C(=O)O)[C@@H](C)CC)[C@@H](C)CC (H-EMRISRII[NMeL]DFLF-OH)	inactive

So, CC[C@H](C)[C@H](NC(=O)[C@H](Cc1ccccc1)NC(=O)[C@H](CC(=O)O)NC(=O)[C@H](CCCNC(=N)N)NC(=O)[C@H](Cc1ccccc1)NC(=O)[C@H](Cc1ccccc1)NC(=O)[C@H](CCCCN)NC(=O)[C@H](CO)NC(=O)[C@H](CC(C)C)NC(=O)[C@H](CCCNC(=N)N)NC(=O)[C@H](CCSC)NC(=O)[C@@H](N)CCC(=O)O)C(=O)N[C@@H](CC(C)C)C(=O)N(C)[C@@H](CCC(N)=O)C(=O)N[C@@H](CCCNC(=N)N)C(=O)O (H-EMRLSKFFRDFIL[NMeQ]R-OH) ? Its Activity was inactive

So, CC[C@H](C)[C@H](NC(=O)[C@H](Cc1ccccc1)NC(=O)[C@H](CC(=O)O)NC(=O)[C@H](CCCNC(=N)N)N(C)C(=O)[C@H](Cc1ccccc1)NC(=O)[C@H](Cc1ccccc1)NC(=O)[C@H](CCCCN)NC(=O)[C@H](CO)NC(=O)[C@H](CC(C)C)NC(=O)[C@H](CCCNC(=N)N)NC(=O)[C@H](CCSC)NC(=O)[C@@H](N)CCC(=O)O)C(=O)N[C@@H](CC(C)C)C(=O)N[C@@H](CCC(N)=O)C(=O)N[C@@H](CCCNC(=N)N)C(=O)O (H-EMRLSKFF[NMeR]DFILQR-OH) ? Its Activity was inactive

So, CC[C@H](C)[C@H](NC(=O)[C@H](CCCNC(=N)N)NC(=O)[C@H](CO)NC(=O)[C@@H](NC(=O)[C@H](CCCNC(=N)N)N(C)C(=O)[C@H](CCSC)NC(=O)[C@@H](N)CCC(=O)O)[C@@H](C)CC)C(=O)N[C@H](C(=O)N[C@@H](CC(C)C)C(=O)N[C@@H](CC(=O)O)C(=O)N[C@@H](Cc1ccccc1)C(=O)N[C@@H](CC(C)C)C(=O)N[C@@H](Cc1ccccc1)C(=O)O)[C@@H](C)CC (H-EM[NMeR]ISRIILDFLF-OH) ? Its Activity was inactive

So, CC[C@H](C)[C@H](NC(=O)[C@H](Cc1ccccc1)NC(=O)[C@H](CC(=O)O)NC(=O)[C@H](CCCNC(=N)N)NC(=O)[C@H](Cc1ccccc1)NC(=O)[C@H](Cc1ccccc1)NC(=O)[C@H](CCCCN)NC(=O)[C@H](CO)NC(=O)[C@H](CC(C)C)NC(=O)[C@H](CCCNC(=N)N)NC(=O)[C@H](CCSC)NC(=O)[C@@H](N)CCC(=O)O)C(=O)N[C@@H](CC(C)C)C(=O)N[C@@H](CCC(N)=O)C(=O)N(C)[C@@H](CCCNC(=N)N)C(=O)O (H-EMRLSKFFRDFILQ[NMeR]-OH) ? Its Activity was > 75%
